Would you kindly list IC50 for each of these compounds?
Molecular target: ROCK2 (Homo sapiens, UniProt O75116)
Sequence (O75116 whole entry, species assumed): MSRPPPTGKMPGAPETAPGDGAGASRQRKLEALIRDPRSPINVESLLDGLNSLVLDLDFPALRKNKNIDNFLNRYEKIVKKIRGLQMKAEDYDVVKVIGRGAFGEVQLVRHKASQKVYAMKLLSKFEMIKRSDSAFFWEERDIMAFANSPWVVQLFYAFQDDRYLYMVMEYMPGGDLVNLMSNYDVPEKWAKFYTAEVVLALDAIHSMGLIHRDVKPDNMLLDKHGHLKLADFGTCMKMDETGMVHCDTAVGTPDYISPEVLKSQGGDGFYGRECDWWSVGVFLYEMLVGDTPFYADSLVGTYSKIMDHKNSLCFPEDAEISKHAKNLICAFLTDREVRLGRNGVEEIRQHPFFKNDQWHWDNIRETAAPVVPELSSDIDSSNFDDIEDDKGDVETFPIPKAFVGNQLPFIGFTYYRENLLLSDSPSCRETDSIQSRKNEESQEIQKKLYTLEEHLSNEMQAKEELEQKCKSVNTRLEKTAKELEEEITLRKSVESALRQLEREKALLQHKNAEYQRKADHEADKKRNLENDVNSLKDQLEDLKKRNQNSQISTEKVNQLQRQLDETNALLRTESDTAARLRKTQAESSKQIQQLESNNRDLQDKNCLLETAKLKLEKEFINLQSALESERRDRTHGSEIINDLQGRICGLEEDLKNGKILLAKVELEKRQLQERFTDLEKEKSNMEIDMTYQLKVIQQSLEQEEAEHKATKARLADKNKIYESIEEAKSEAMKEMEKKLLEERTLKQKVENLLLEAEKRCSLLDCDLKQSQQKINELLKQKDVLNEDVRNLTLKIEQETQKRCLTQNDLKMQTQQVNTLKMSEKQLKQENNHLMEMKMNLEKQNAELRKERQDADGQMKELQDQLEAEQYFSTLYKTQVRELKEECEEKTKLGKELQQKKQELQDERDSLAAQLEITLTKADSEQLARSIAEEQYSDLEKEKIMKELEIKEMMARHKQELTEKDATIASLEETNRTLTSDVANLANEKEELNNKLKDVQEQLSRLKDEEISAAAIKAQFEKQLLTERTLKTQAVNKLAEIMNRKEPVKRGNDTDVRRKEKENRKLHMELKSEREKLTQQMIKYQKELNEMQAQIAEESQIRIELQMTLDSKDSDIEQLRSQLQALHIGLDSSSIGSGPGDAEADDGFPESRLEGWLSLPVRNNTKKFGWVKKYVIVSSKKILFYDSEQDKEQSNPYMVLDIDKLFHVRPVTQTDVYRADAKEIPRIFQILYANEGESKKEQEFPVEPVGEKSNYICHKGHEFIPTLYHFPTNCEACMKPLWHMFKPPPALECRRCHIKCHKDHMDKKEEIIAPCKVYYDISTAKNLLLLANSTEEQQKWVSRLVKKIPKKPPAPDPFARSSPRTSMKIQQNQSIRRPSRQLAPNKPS
Experiment: ROCK2 kinase inhibition assay (Caliper LABCHIP, FITC peptide substrate)
Assay type: biochemical
Conditions: 5 μM ATP, 1.5 μM peptide substrate; value ranges
Structures can show the parent of a compound that is named as a salt.

COc1cc(F)cc(CN2CCN(c3cc(OC)c(-c4cn[nH]c4)cn3)C2=O)c1; 2.1 to 20 nM

Please state IC50 for every compound in the list that follows.
1. O=C1CN(Cc2cccc(F)c2)C(=O)N1c1ccc(-c2cn[nH]c2)cc1
2. COc1cc(N2CCN(Cc3cccc(F)c3)C2=O)ccc1-c1ccncc1 [Example 59, TFA]
3. COc1cc(F)cc(C(C)N2CCN(c3ccc(-c4cn[nH]c4)cc3)C2=O)c1 (single isomer, unassigned) [Example 198]
4. CC(c1cccc(OCC2CC2)c1)N1CCN(c2ccc(-c3cn[nH]c3)cc2)C1=O (single isomer, unassigned)
5. CCc1nc(-n2ccn(Cc3cccc(OC)c3)c2=O)ccc1-c1cn[nH]c1
6. CCOc1cccc(C(C)N2CCN(c3ccc(-c4cn[nH]c4)c(CC)n3)C2=O)c1 (single isomer, unassigned)

[out]
1: 200 to 2000 nM; 2: 20.1 to 200 nM; 3: 200 to 2000 nM; 4: 200 to 2000 nM; 5: < 2 nM; 6: 2.1 to 20 nM

[in] Could you tell me which IC50 is on file for "N#Cc1cccc(CN2CCN(c3ccc(-c4cn[nH]c4)cn3)C2=O)c1" ?
[out] 200 to 2000 nM

###

Biological target: ROCK2 (Homo sapiens)
pIC50: −log10 of the molar value. Structures can show the parent of a compound that is named as a salt.
measured.property: pIC50

Worked cases, pIC50 given:
COc1nc(N2CCN(Cc3cccc(Cl)c3)C2=O)ccc1-c1cn[nH]c1; 7.70 to 8.68
COc1cccc(CN2C(=O)N(c3ccc(-c4cn[nH]c4)cc3)CC2(C)C)c1F; 6.70 to 7.70
CC(C)COc1cccc(CN2CCN(c3ccc(-c4cn[nH]c4)c(F)c3)C2=O)c1; 7.70 to 8.68
COc1cc(F)cc(Cn2ccn(-c3ccc(-c4cn[nH]c4)cc3)c2=O)c1; 7.70 to 8.68
COc1ccc(F)c(CN2CCN(c3ccc(-c4ccncc4)c(OC)c3)C2=O)c1 [Example 58, TFA]; 5.70 to 6.70
COc1cc(N2CC(=O)N(CCc3ccccc3)C2=O)ccc1-c1cn[nH]c1; 6.70 to 7.70

Please state pIC50 for every compound in the list that follows.
1. O=C1N(Cc2cccc(F)c2)CCN1c1ccc(-c2ccnc(F)c2)cc1
2. COc1cc(CN2CCN(c3ccc(-c4cn[nH]c4)c(C)c3)C2=O)ccc1F
3. COc1cccc(C(C)n2ccn(-c3ccc(-c4ccnc(F)c4)cc3)c2=O)c1 (single isomer, unassigned)
4. COc1cccc(C(C)N2CCN(c3cc(C)c(-c4cn[nH]c4)cn3)C2=O)c1 (single isomer, unassigned) [Example 471]

[out]
["5.70 to 6.70", "7.70 to 8.68", "5.70 to 6.70", "6.70 to 7.70"]

Please state pIC50 for every compound in the list that follows.
1. CCc1cc(-n2ccn(Cc3ccc(F)c(OC)c3)c2=O)ccc1-c1cn[nH]c1
2. COc1cccc([C@@H](C)N2CCN(c3ccc(-c4cn[nH]c4)cc3OC)C2=O)c1
3. COc1cc(F)cc(Cn2ccn(-c3ccc(-c4cn[nH]c4)cn3)c2=O)c1

[out]
["6.70 to 7.70", "6.70 to 7.70", "7.70 to 8.68"]

###

Observed IC50 for ROCK2 (Homo sapiens), reported per entry below.

Worked cases, IC50 given:
COc1ccc(F)c(Cn2ccn(-c3ccc(-c4cn[nH]c4)c(OC)n3)c2=O)c1 [Example 373]; < 2 nM
CCOc1cc(N2CCN(Cc3cccc(OC)c3)C2=O)ncc1-c1cn[nH]c1 [Example 473]; 20.1 to 200 nM
COc1cc(N2CCN(Cc3c(F)cccc3F)C2=O)ccc1-c1cn[nH]c1 [Example 16]; 20.1 to 200 nM

Please state IC50 for every compound in the list that follows.
1. Cc1ccc(F)cc1Cn1ccn(-c2ccc(-c3cn[nH]c3)cc2)c1=O [Example 404]
2. COc1cccc(C(C)N2CCN(c3ccc(-c4cn[nH]c4)cn3)C2=O)c1 (single isomer, unassigned) [Example 459]
3. COc1nc(N2CCN(Cc3cc(F)cc(F)c3)C2=O)ccc1-c1cn[nH]c1 [Example 247]
4. COc1cc(N2CC(=O)N(Cc3cccc(F)c3)C2=O)ccc1-c1cn[nH]c1 [Example 100]
5. O=C1CN(Cc2ccccc2)C(=O)N1c1ccc(-c2cn[nH]c2)cc1 [Example 87]

[out]
1: 20.1 to 200 nM; 2: 20.1 to 200 nM; 3: < 2 nM; 4: 20.1 to 200 nM; 5: 200 to 2000 nM

###

Counter-ions that a name gives are not always drawn.
Observed IC50 for ROCK2 (Homo sapiens), reported per entry below.

Worked cases, IC50 given:
O=c1n(Cc2ccccc2F)ccn1-c1ccc(-c2cn[nH]c2)cc1; 20.1 to 200 nM
COc1nc(N2CCN(CC3CCCCC3)C2=O)ccc1-c1cn[nH]c1; 2.1 to 20 nM
COc1cc(CN2C(=O)N(c3ccc(-c4cn[nH]c4)cn3)CC2(C)C)ccc1F; 2.1 to 20 nM
COc1cc(-c2cn[nH]c2)ccc1N1CCN(Cc2ccccc2)C1=O; 200 to 2000 nM
CCOc1cccc(C(C)n2ccn(-c3ccc(-c4cn[nH]c4)cc3)c2=O)c1 (single isomer, unassigned) [Example 368]; 200 to 2000 nM

Please state IC50 for every molecule in the list that follows.
1. O=C1N(Cc2cccc(F)c2)CCN1c1ccc(-c2ccncc2)cc1 [Example 56, TFA]
2. COc1cc(F)cc(C(C)n2ccn(-c3ccc(-c4cn[nH]c4)c(OC)n3)c2=O)c1 (single isomer, unassigned) [Example 398]
3. COc1cc(F)cc(CN2CCN(c3ccc(-c4cn[nH]c4)c(C)n3)C2=O)c1
4. CNCC(c1cccc(OC)c1)N1CCN(c2ccc(-c3cn[nH]c3)cc2)C1=O (single isomer, unassigned)
5. COc1nc(-n2ccn(Cc3cccc(F)c3)c2=O)ccc1-c1cn[nH]c1
6. COc1cccc(C(C)n2ccn(-c3ccc(-c4cn[nH]c4)cc3)c2=O)c1 (single isomer, unassigned) [Example 340]
7. CCc1cc(N2CCN(Cc3cc(F)cc(OC)c3)C2=O)ncc1-c1cn[nH]c1
8. Cc1nc(N2CCN(Cc3cccc(OCC4CC4)c3)C2=O)ccc1-c1cn[nH]c1

[out]
["20.1 to 200 nM", "2.1 to 20 nM", "2.1 to 20 nM", "2.1 to 20 nM", "< 2 nM", "20.1 to 200 nM", "200 to 2000 nM", "20.1 to 200 nM"]

Please state IC50 for every molecule in the list that follows.
1. CCc1nc(N2CCN(C(C)c3ccc(F)c(OC)c3)C2=O)ccc1-c1cn[nH]c1 (single isomer, unassigned) [Example 271]
2. COc1cccc(C(C)N2CCN(c3ccc(-c4cn[nH]c4)c(OC)n3)C2=O)c1 (single isomer, unassigned)
3. COc1cccc(CN2CC(C(=O)O)N(c3ccc(-c4cn[nH]c4)cc3)C2=O)c1 (stereo not shown)

[out]
200 to 2000 nM
20.1 to 200 nM
20.1 to 200 nM

###

Target: ROCK2 (Homo sapiens)
pIC50: −log10 of the molar value.
measured.property: pIC50

Worked cases, pIC50 given:
COc1cccc(C(C(N)=O)N2CCN(c3ccc(-c4cn[nH]c4)cc3)C2=O)c1 (single isomer, unassigned) [Example 295]; 6.70 to 7.70
CC(c1cccc(OCC2CC2)c1)n1ccn(-c2ccc(-c3cn[nH]c3)cc2)c1=O (single isomer, unassigned) [Example 356]; 5.70 to 6.70
COc1cccc(C(C)N2CCN(c3cc(C)c(-c4cn[nH]c4)cn3)C2=O)c1 (single isomer, unassigned) [Example 470]; 6.70 to 7.70
COc1cc(F)cc(CN2C(=O)N(c3ccc(-c4cn[nH]c4)cc3)CC2(C)C)c1 [Example 138]; 7.70 to 8.68
CCc1nc(N2CCN(C(CO)c3cccc(OC)c3)C2=O)ccc1-c1cn[nH]c1 (single isomer, unassigned) [Example 159]; > 8.70

Please state pIC50 for every molecule in the list that follows.
1. COc1cccc(CN2C(=O)N(c3ccc(-c4cn[nH]c4)cn3)C[C@@H]2CO)c1 [Example 474]
2. COc1cccc(C(C)N2C(=O)N(c3ccc(-c4cn[nH]c4)cc3)C[C@@H]2CO)c1 (single isomer, unassigned) [Example 133]

[out]
7.70 to 8.68
6.70 to 7.70
